# methodNotes: yeast display, Sf9 membrane polyspecificity reagent, FACS + sequencing; frameworks hold sequencing errors
reportedMetric: polyreactivity (PSR sort gate)

Below are worked cases with known answers.
sequenceData	reportedMetric	valueMeasured
QVQLVESGGGLVQAGGSLRLSCAASGSTFYYYGMGWYRQAPGKERELVATISGSGGSTYYADSVKGRFTITRDNAKNTVYLQMNSLTQEDTSVYYCNKDVLPSQTYSNVYWGQGTQVSVSS	polyreactivity (PSR sort gate)	low polyreactivity
QVQLVESGGGLVQAGGSLRLSCAPSGYIFPEYVMGWYRQSPGKERELVAVITWDGTSTYADSVKGRFTISRDNAKNTVYLQMNSLIPVDTAVYYCAADTNYYVDTAGYGDGLDSWGQGTQVTVSS	polyreactivity (PSR sort gate)	low polyreactivity
QVQLVESGGGLDQAGGSLRLSCAASGSTFVWNAMGWYRHAPGKERELVAAISSSGGSTYYADSVKGRFTISRDNAKNTVYLQMNSLKPEDTAVYYCAKGYYVRMDWGQGTQVTVSS	polyreactivity (PSR sort gate)	high polyreactivity
QVQLVESGGGIVQAGGSLRLSCAASGLNFYWYAMGWYRQAPGKERELVAAITWSGGITYYADSVKGRFTISRDNANNTVYLQMNSLNPEDTAVYYCADDDDYGDVTYDYWGHGTQVTVSS	polyreactivity (PSR sort gate)	low polyreactivity

Next up:
Name the recorded polyreactivity (PSR sort gate) for QVQLVESGGGLVQAGGSLRLSCAASGTIFFGNTMGWYRQAPGKERELVAVITSSGGRTFYADSVKGRFTISRDNAKNTVYLHMNSLKPEDTAVYYCAAGHGFYYFTPTHDSWGQGTQVTVSS .
high polyreactivity
